condition parameters: 318.15 K; 101.33 kPa; Liquid; Vibrating tube method
reported metric: mass density (kg/m3)

CCCC(=O)[O-].CCCC[NH2+]CCO [N-(2-hydroxyethyl)butan-1-aminium butyrate]	965.7
CCCCC(=O)[O-].CCCC[NH2+]CCO [N-(2-hydroxyethyl)butan-1-aminium pentanoate]	952.2
CCC(=O)[O-].CCCC[NH2+]CCO [N-(2-hydroxyethyl)butan-1-aminium propionate]	987.3
CC(=O)[O-].CCCC[NH2+]CCO [N-(2-hydroxyethyl)butan-1-aminium acetate]	1003.8
CCCC[NH2+]CCO.O=C[O-] [N-(2-hydroxyethyl)butan-1-aminium formate]	1023.1

* * *

condition parameters: 308.15 K; 101.33 kPa; Liquid; Vibrating tube method
reported metric: mass density (kg/m3)

CCC(=O)[O-].CCCC[NH2+]CCO [N-(2-hydroxyethyl)butan-1-aminium propionate]	994.4
CCCC[NH2+]CCO.O=C[O-] [N-(2-hydroxyethyl)butan-1-aminium formate]	1029.1
CCCC(=O)[O-].CCCC[NH2+]CCO [N-(2-hydroxyethyl)butan-1-aminium butyrate]	973
CCCCC(=O)[O-].CCCC[NH2+]CCO [N-(2-hydroxyethyl)butan-1-aminium pentanoate]	959.4
CC(=O)[O-].CCCC[NH2+]CCO [N-(2-hydroxyethyl)butan-1-aminium acetate]	1010.8

* * *

condition parameters: 313.15 K; 101.33 kPa; Liquid; Falling or rolling sphere viscometry
reported metric: viscosity (mPa·s)

Reference set, count: 3
CCCCC(=O)[O-].CCCC[NH2+]CCO [N-(2-hydroxyethyl)butan-1-aminium pentanoate]	244.1
CCC(=O)[O-].CCCC[NH2+]CCO [N-(2-hydroxyethyl)butan-1-aminium propionate]	212
CC(=O)[O-].CCCC[NH2+]CCO [N-(2-hydroxyethyl)butan-1-aminium acetate]	158.4

P = CCCC(=O)[O-].CCCC[NH2+]CCO [N-(2-hydroxyethyl)butan-1-aminium butyrate]
Q = CCCC[NH2+]CCO.O=C[O-] [N-(2-hydroxyethyl)butan-1-aminium formate]
For the pair P and Q , which member has the lower viscosity number? Choose, then provide that item's label.
Q

* * *

condition parameters: 303.15 K; 101.33 kPa; Liquid; Vibrating tube method
reported metric: mass density (kg/m3)

CC(=O)[O-].CCCC[NH2+]CCO [N-(2-hydroxyethyl)butan-1-aminium acetate]	1014.3
CCCC(=O)[O-].CCCC[NH2+]CCO [N-(2-hydroxyethyl)butan-1-aminium butyrate]	976.6
CCCCC(=O)[O-].CCCC[NH2+]CCO [N-(2-hydroxyethyl)butan-1-aminium pentanoate]	963
CCC(=O)[O-].CCCC[NH2+]CCO [N-(2-hydroxyethyl)butan-1-aminium propionate]	997.9
CCCC[NH2+]CCO.O=C[O-] [N-(2-hydroxyethyl)butan-1-aminium formate]	1032.1

* * *

condition parameters: 298.15 K; 101.33 kPa; Liquid; Vibrating tube method
reported metric: mass density (kg/m3)

CCCC[NH2+]CCO.O=C[O-] [N-(2-hydroxyethyl)butan-1-aminium formate]	1035.1
CCC(=O)[O-].CCCC[NH2+]CCO [N-(2-hydroxyethyl)butan-1-aminium propionate]	1001.4
CCCC(=O)[O-].CCCC[NH2+]CCO [N-(2-hydroxyethyl)butan-1-aminium butyrate]	980.1
CC(=O)[O-].CCCC[NH2+]CCO [N-(2-hydroxyethyl)butan-1-aminium acetate]	1017.8
CCCCC(=O)[O-].CCCC[NH2+]CCO [N-(2-hydroxyethyl)butan-1-aminium pentanoate]	966.5
